# test.details: Tmax in CD-1 mouse at 5 mg/kg, po administered as single dose measured after 24 hrs by LC-MS/MS analysis
# Assay type: ADME, organism-based
# condition.context: in vivo
reported.metric: Tmax

{"smiles.entry": "O=C(O)Cc1ccc(CNC(=O)Nc2cc(Cl)c(-c3ccccc3OC(F)(F)F)c(Cl)c2)cc1", "reading": "1 h"}

###

# test.details: Oral bioavailability in CD-1 mouse at 5 mg/kg administered as single dose measured after 24 hrs by LC-MS/MS analysis
# Format: ADME, organism-based
# condition.context: in vivo

{"smiles.entry": "O=C(O)Cc1ccc(CNC(=O)Nc2cc(Cl)c(-c3ccccc3OC(F)(F)F)c(Cl)c2)cc1", "bioavailability": "38.1%"}
